For each entry below, report its TGI value.
System: SK-MEL-5 melanoma
Test: NCI tumour cell line growth inhibition, 48 h
Give bare numbers, in µM.

As a guide, the following entries are already answered.
[[record]]
molecule = "N=C(N)SCc1ccc2c(c1)Sc1ccccc1O2"
assay_metric = "TGI"
display_unit = "µM"
reported = 3.11

[[record]]
molecule = "COc1cc(OC)cc(-c2cc(=O)c3c(OC)c(OC)c(OC)c(OC)c3o2)c1"
assay_metric = "TGI"
display_unit = "µM"
reported = 84

[[record]]
molecule = "COc1cc(/C=C/c2cc(O)c(C(C)=O)c(O)c2)cc2c1O[C@]1(C)CC[C@@H](O)C(C)(C)[C@H]1C2"
assay_metric = "TGI"
display_unit = "µM"
reported = 22.3

[[record]]
molecule = "COc1cc(C2c3cc4c(cc3OC(C)(O)C2C)OCO4)cc(OC)c1OC (stereo not given)"
assay_metric = "TGI"
display_unit = "µM"
reported = 2.36

[[record]]
molecule = "COc1ccc([C@H]2[C@@H](F)C(=O)N2c2cc(OC)c(OC)c(OC)c2)cc1F"
assay_metric = "TGI"
display_unit = "µM"
reported = 0.35


Turning now to a further molecule:
// lookup TGI for CCN1CCN(c2nc(C)cc(N(CCNc3ccnc4cc(Cl)ccc34)Cc3ccc4c(c3)OCO4)n2)CC1 3.17

* * *

Tested on: OVCAR-5 ovarian
Test: NCI tumour cell line growth inhibition, 48 h
assay metric: TGI

[[record]]
compound = "Cc1nc(N)c(N2CCN([N+](=O)[O-])CC2)c(=O)[nH]1"
measured_target = "OVCAR-5 ovarian"
reported = "> 100 µM"

[[record]]
compound = "COc1cccc(CCCNC(=O)Cc2cc(OC)c(OC)cc2CO)c1"
measured_target = "OVCAR-5 ovarian"
reported = "> 100 µM"


// for each compound in input: emit TGI
1. OC(c1cc(-c2ccc(C(F)(F)F)cc2)nc(-c2ccc(C(F)(F)F)cc2)c1)C1CCCCN1 (centres undefined)
2. O=c1[nH]c(Nc2nc3ccccc3[nH]2)nc(O)c1-c1ccccc1
3. CCCC(=O)OC1CC(n2cc(F)c(=O)[nH]c2=O)OC1COP(=O)(OCC(Cl)(Cl)Cl)OCC(Cl)(Cl)Cl (centres undefined)
4. O=c1c2sc(=S)n(-c3ccc(F)cc3)c2ncn1/N=C/c1ccc(F)cc1F
5. OC(c1nc2ccccc2[nH]1)C(O)C(O)C(O)c1nc2ccccc2[nH]1 (centres undefined)
6. CC1CCC(C(=O)O)(C(Br)C(=O)O)CC1 (centres undefined)
7. Cc1ccc(S(=O)(=O)Nc2ccccc2C(=O)c2ccc(C)c(C)c2)cc1
8. Brc1ccccc1C1SCc2nc3ccccc3n21 (centres undefined)

1. 3.06 µM
2. > 100 µM
3. > 100 µM
4. > 100 µM
5. > 100 µM
6. > 100 µM
7. > 100 µM
8. 68 µM

# return TGI for each item in the list
1. c1ccc(COc2cccc3ccc[n+](Cc4ccccc4)c23)cc1
2. CCOC(=O)C(=C=C=C(c1ccccc1)c1ccccc1)C(=O)OCC
3. CN(C)C1(N(C)C)Oc2c(c(=O)n(C)c(=O)n2C)C(c2ccc(Br)cc2)C1(F)F (centres undefined)
4. CC(=O)/C(=C\c1cccc([N+](=O)[O-])c1)C(=O)Nc1ccccc1C
5. C=C1NC(=O)C(C(C)CC)NC(=O)C2CSCC(NC(=O)CCC(=O)O)C(=O)NC(Cc3ccccc3)C(=O)NC(C)C(=O)NC(CC(C)CC)C(=O)NC(C(=O)NC(Cc3ccccc3)C(=O)N3CCCC3C(=O)N2)C(C)OC(=O)C(CO)NC(=O)C(C(O)COC)N(C)C(=O)C(C(C)C)NC(=O)C(CC(C)CC)NC1=O (centres undefined)

1. 9.98 µM
2. 35.5 µM
3. > 100 µM
4. > 100 µM
5. > 6 µM
